Entry source: ChEMBL document CHEMBL3627629

Biological target: Muscarinic acetylcholine receptor M5 (Homo sapiens, UniProt P08912)
Sequence (P08912 whole entry): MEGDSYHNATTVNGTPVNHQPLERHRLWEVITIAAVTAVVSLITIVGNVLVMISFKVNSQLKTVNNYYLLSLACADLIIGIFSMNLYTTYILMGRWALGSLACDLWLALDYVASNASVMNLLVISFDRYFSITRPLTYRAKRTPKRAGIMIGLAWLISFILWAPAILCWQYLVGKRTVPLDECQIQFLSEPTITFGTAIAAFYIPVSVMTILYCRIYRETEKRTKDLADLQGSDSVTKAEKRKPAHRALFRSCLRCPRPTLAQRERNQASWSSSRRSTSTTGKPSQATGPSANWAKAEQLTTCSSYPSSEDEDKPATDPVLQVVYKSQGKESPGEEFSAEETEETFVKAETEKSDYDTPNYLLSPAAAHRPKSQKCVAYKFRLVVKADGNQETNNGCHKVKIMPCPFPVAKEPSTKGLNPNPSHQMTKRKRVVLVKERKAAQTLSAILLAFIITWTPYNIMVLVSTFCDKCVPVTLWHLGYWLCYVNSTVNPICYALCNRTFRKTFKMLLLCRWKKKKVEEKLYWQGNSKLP
measuredEndpoint: Ki

INSERT INTO results (compoundsmiles, val) VALUES
  ('COc1ccc(CCNC(=O)NCC2(c3ccccc3)CCN(C)CC2)cc1OC', '> 10 µM'),
  ('COc1ccc(CCC(=O)NCC2(c3ccccc3)CCN(C)CC2)cc1OC', '> 10 µM');

--- query ---
**Q:** # Ki lookup, item COc1ccc(CCNC(=O)C2(c3ccccc3)CCN(C)CC2)cc1OC
**A:** > 30 µM
